Molecular target: CAL (CFTR-associated ligand) PDZ (Homo sapiens, UniProt Q9HD26)
Assay: ITC
pKd: −log10 of the molar value. Ends that are not written are not given here.

{"Binder": "ANSRWPTSK(Ac)I [iCAL36 P-1 Ac-K]", "pKd": 4.58}
{"Binder": "ANSRWPTSKI [iCAL36 P-1 BB-K]", "pKd": 4.68}
{"Binder": "ANSRWPTSKI [iCAL36 P-1 FB-K]", "pKd": 4.89}
{"Binder": "ANSRWPTSKI [iCAL36 P-1 Tfa-K]", "pKd": 4.46}
{"Binder": "ANSRWPK(Ac)SII [iCAL36 P-3 Ac-K]", "pKd": 4.04}
{"Binder": "ANSRWK(Ac)TSII [iCAL36 P-4 Ac-K]", "pKd": 4.31}
